meta.source: ChEMBL document CHEMBL1140541

List of pIC50 values.
system tested: Macrophage colony-stimulating factor 1 receptor (Homo sapiens, UniProt P07333)
Sequence (P07333 whole entry): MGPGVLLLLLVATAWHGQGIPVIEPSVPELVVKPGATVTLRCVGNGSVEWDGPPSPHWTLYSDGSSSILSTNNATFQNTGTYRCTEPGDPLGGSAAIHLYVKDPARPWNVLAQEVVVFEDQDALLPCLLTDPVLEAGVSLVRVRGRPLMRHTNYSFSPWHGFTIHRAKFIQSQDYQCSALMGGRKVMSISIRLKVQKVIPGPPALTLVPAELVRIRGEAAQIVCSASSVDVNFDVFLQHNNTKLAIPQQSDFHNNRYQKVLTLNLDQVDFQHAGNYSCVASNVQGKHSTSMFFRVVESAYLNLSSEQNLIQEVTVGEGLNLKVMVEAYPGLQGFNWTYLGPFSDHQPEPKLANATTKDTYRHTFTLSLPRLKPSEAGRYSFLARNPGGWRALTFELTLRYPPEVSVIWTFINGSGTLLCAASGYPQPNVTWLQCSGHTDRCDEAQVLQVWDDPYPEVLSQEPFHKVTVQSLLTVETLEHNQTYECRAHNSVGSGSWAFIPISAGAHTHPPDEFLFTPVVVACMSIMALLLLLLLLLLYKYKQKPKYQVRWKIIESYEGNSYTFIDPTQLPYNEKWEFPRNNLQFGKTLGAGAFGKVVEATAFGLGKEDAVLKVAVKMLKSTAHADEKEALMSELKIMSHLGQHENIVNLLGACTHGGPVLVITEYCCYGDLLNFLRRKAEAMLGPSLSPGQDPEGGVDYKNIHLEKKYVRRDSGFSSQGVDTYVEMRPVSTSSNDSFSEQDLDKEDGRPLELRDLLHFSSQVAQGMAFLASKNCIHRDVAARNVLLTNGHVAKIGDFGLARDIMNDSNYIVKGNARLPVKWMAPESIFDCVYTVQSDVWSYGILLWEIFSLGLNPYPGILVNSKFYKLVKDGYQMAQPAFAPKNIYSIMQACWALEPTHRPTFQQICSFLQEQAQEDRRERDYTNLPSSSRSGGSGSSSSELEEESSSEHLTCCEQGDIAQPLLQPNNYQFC
method description: Inhibition of ATP-induced autophosphorylation of cFMS tyrosine kinase
pIC50: −log10 of the molar value.

Example entries begin here.
smiles string: N#Cc1ccc(C(=O)Nc2cc(C(=O)O)ccc2N2CCCCC2)o1
pIC50: < 5.70

smiles string: O=C(Nc1ccccc1N1CCC1)c1ccc([N+](=O)[O-])o1
pIC50: < 5.00

smiles string: O=C(Nc1ccccc1N1CCC(CO)CC1)c1ccc([N+](=O)[O-])o1
pIC50: 6.89

smiles string: O=C(Nc1ccccc1N1CCNCC1)c1ccc([N+](=O)[O-])o1
pIC50: < 5.00

smiles string: O=C(Nc1ccccc1N1CCCCC1)c1ccc(C(F)(F)F)o1
pIC50: < 5.00

Here O=C(Nc1ccccc1N1CCCCC1)c1ccc(Nc2ccccc2)o1 was tested on Macrophage colony-stimulating factor 1 receptor (Homo sapiens, UniProt P07333), and its pIC50 came to < 5.00
